- MEASUREMENT TARGET: ErbB2 kinase (Homo sapiens, UniProt P04626)
- Construct: The final concentration of ErbB2 kinase was 0.06 ng/μL
- Sequence (P04626 23-1255): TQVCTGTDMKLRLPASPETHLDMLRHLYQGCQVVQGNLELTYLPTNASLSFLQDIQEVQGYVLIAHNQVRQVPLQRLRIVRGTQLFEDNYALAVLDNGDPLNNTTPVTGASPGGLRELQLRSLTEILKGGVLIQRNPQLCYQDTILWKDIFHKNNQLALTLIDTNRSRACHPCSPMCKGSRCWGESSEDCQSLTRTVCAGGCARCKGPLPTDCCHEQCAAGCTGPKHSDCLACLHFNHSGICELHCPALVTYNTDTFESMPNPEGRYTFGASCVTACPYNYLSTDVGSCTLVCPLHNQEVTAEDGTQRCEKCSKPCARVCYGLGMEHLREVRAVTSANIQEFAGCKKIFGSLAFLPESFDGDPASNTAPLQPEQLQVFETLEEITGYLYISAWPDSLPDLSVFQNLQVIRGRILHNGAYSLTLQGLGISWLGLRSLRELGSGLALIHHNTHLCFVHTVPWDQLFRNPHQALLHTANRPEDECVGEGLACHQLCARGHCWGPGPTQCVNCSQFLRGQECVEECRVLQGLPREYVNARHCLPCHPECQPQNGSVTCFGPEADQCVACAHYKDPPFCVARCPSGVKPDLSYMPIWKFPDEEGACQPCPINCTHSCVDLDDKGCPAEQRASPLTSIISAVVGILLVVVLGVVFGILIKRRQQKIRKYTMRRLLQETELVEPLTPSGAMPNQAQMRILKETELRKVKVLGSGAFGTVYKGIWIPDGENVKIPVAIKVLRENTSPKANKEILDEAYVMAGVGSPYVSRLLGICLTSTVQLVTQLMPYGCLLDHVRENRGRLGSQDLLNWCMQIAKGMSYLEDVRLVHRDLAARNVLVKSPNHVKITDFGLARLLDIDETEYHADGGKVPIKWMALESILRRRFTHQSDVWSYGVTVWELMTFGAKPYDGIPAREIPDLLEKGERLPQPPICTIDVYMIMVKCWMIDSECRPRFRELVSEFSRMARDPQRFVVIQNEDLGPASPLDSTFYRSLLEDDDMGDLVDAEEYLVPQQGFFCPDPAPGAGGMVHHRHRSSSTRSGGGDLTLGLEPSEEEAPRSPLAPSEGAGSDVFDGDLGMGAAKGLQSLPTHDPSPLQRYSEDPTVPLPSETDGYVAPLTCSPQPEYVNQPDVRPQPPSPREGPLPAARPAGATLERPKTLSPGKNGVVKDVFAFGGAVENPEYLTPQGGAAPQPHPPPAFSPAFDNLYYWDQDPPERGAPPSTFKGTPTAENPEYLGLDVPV
- PROTOCOL TEXT: EGFR/ErbB2 enzymatic experiment (HTRF kinEASE-TK), ErbB2
- Format: biochemical
- CONDITION NOTES: ErbB2 kinase 0.06 ng/μL, ATP 4 μM; read-out: Kinase IC50 (nM) in vitro ErbB2
ASSAY METRIC: IC50
Answer with the number, then the unit.

The compound C=CC(=O)N[C@@H]1CCCN(c2ccc3ncnc(Nc4ccc(Oc5cc6nncn6cn5)c(C)c4)c3c2)C1 showed IC50 equal to 3.83 nM

The compound Cc1cc(Nc2ncnc3ccc(NC(=O)/C=C/[C@H]4CCCN4C)cc23)ccc1Oc1ccn2ccnc2c1 showed IC50 equal to 0.73 nM

The compound CCOc1cc2ncnc(Nc3ccc(Oc4ccn5ncnc5c4)c(C)c3)c2cc1NC(=O)/C=C/[C@H]1CCCN1C showed IC50 equal to 0.37 nM

---

Provide the reported inhibition at 20 min, 10 µM of each item.
- MEASUREMENT TARGET: CYP1A2 (Homo sapiens, UniProt P05177)
- Construct: A system of 100 μL human liver microsomes; from tissue; host or cells: human liver microsomes
- Sequence (P05177 whole entry): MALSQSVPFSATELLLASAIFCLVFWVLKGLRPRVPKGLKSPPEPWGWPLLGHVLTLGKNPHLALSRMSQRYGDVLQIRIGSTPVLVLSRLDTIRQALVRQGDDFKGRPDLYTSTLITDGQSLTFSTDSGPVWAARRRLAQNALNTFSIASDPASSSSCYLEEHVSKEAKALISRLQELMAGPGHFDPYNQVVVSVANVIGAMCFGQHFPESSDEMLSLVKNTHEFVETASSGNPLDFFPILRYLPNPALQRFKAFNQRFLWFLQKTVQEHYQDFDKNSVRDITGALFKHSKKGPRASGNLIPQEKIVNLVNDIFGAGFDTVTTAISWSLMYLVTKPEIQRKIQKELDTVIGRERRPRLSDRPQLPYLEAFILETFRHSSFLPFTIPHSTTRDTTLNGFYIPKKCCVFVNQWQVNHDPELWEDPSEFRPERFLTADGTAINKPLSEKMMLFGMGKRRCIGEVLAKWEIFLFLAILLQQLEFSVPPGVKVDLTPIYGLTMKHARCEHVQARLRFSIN
- PROTOCOL TEXT: Direct inhibition (DI) of CYP1A2 in human liver microsomes
- Format: in vitro ADME
- CONDITION NOTES: probe Phenacetin, human liver microsomes 0.2 mg/mL, 10 μM compound, read-out: Direct inhibition (DI) 1A2 (Phenacetin)
Give the quantity in %, number only.

Record CCOc1cc2ncc(C#N)c(Nc3ccc(OCc4ccccn4)c(Cl)c3)c2cc1NC(=O)/C=C/[C@H]1CCCN1C [Pyrotinib, reference compound] ; system CYP1A2 (Homo sapiens, UniProt P05177); inhibition at 20 min, 10 µM = 22

Record CCOc1cc2ncnc(Nc3ccc(Oc4ccn5ncnc5c4)c(C)c3)c2cc1NC(=O)/C(F)=C\[C@H]1CCCN1C [Final product of Embodiment 44] ; system CYP1A2 (Homo sapiens, UniProt P05177); inhibition at 20 min, 10 µM = 12

Record CCOc1cc2ncnc(Nc3ccc(Oc4ccn5ncnc5c4)c(C)c3)c2cc1NC(=O)/C=C/[C@H]1CCCN1C [Final product of Embodiment 22] ; system CYP1A2 (Homo sapiens, UniProt P05177); inhibition at 20 min, 10 µM = 14

---

- MEASUREMENT TARGET: CYP2C9 (Homo sapiens, UniProt P11712)
- Construct: A system of 100 μL human liver microsomes; from tissue; host or cells: human liver microsomes
- Sequence (P11712 whole entry): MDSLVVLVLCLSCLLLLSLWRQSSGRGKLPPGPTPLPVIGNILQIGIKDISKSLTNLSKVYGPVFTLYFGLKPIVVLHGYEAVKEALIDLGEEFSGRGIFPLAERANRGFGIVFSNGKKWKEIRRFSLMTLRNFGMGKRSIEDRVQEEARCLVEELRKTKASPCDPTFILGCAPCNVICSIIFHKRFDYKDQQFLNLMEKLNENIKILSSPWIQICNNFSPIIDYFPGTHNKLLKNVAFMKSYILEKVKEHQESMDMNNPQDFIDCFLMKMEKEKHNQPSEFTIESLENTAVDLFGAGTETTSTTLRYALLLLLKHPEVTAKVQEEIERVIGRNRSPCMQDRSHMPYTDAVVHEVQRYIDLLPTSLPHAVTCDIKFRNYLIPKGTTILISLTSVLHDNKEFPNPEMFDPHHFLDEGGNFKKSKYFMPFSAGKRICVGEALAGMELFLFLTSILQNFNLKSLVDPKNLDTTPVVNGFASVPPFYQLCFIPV
- PROTOCOL TEXT: Direct inhibition (DI) of CYP2C9 in human liver microsomes
- Format: in vitro ADME
- CONDITION NOTES: probe Diclofenac, human liver microsomes 0.2 mg/mL, 10 μM compound, read-out: Direct inhibition (DI) 2C9 (Diclofenac)
Provide the reported inhibition at 20 min, 10 µM of each item.

The compound Cc1cc(Nc2ncnc3ccc(NC(=O)/C=C/[C@H]4CCCN4)cc23)ccc1Oc1ccn2ncnc2c1 showed inhibition at 20 min, 10 µM equal to < 0%

The compound Cc1cc(Nc2ncnc3ccc(NC(=O)/C(F)=C/[C@H]4CCCN4C)cc23)ccc1Oc1cc2nncn2cn1 showed inhibition at 20 min, 10 µM equal to < 0%

The compound Cc1cc(Nc2ncnc3ccc(NC(=O)/C=C/[C@H]4CCCN4C)cc23)ccc1Oc1ccc2nccn2n1 showed inhibition at 20 min, 10 µM equal to < 0%

The compound Cc1cc(Nc2ncnc3ccc(NC(=O)/C=C/[C@H]4CCCN4C)cc23)ccc1Oc1ccn2ncnc2c1 showed inhibition at 20 min, 10 µM equal to < 0%

The compound Cc1cc(Nc2ncnc3ccc(NC(=O)/C(F)=C\[C@H]4CCCN4C)cc23)ccc1Oc1ccn2ncnc2c1 showed inhibition at 20 min, 10 µM equal to < 0%

The compound CCOc1cc2ncnc(Nc3ccc(Oc4ccn5ncnc5c4)c(C)c3)c2cc1NC(=O)/C(F)=C/[C@H]1CCCN1C showed inhibition at 20 min, 10 µM equal to < 0%

---

- MEASUREMENT TARGET: CYP2C19 (Homo sapiens)
- Construct: A system of 100 μL human liver microsomes; from tissue; host or cells: human liver microsomes
- Sequence (P33261 whole entry): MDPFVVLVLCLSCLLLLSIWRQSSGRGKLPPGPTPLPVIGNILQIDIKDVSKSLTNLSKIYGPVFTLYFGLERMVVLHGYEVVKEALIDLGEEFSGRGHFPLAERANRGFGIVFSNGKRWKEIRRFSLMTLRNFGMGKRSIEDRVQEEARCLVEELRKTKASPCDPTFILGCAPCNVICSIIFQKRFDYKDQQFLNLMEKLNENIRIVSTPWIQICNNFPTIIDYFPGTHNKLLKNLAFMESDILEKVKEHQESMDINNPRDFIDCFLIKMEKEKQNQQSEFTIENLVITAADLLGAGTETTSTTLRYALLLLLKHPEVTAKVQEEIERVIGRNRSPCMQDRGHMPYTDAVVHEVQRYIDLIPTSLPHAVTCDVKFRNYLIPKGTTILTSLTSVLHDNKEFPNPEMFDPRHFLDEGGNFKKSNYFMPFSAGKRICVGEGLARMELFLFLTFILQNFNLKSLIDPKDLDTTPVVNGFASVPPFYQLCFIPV
- PROTOCOL TEXT: Direct inhibition (DI) of CYP2C19 in human liver microsomes
- Assay type: in vitro ADME
- CONDITION NOTES: probe Mephenytoin, human liver microsomes 0.2 mg/mL, 10 μM compound, read-out: Direct inhibition (DI) 2C19 (Mephenytoin)
ASSAY METRIC: inhibition at 20 min, 10 µM (%)
Give the quantity in %, number only.

Record Cc1cc(Nc2c(C#N)cnc3ccc(NC(=O)/C=C/[C@H]4CCCN4C)cc23)ccc1Oc1cc2nncn2cn1 [Final product of Embodiment 23] ; system CYP2C19 (Homo sapiens); inhibition at 20 min, 10 µM = 10

Record Cc1cc(Nc2ncnc3ccc(NC(=O)/C=C/[C@H]4CCCN4C)cc23)ccc1Oc1ccn2ncnc2c1 [Final product of Embodiment 20] ; system CYP2C19 (Homo sapiens); inhibition at 20 min, 10 µM = 7

Record CCOc1cc2ncnc(Nc3ccc(Oc4ccn5ncnc5c4)c(C)c3)c2cc1NC(=O)/C(F)=C/[C@H]1CCCN1C [Final product of Embodiment 45] ; system CYP2C19 (Homo sapiens); inhibition at 20 min, 10 µM = 11

Record C=CC(=O)NC1CCC=C(c2ccc3ncnc(Nc4ccc(Oc5cc6nncn6cn5)c(C)c4)c3c2)C1 (stereo not shown) [Final product of Embodiment 1] ; system CYP2C19 (Homo sapiens); inhibition at 20 min, 10 µM = 37

Record CN1CCC[C@@H]1/C=C/C(=O)Nc1ccc2ncnc(Nc3ccc(Oc4ccn5ncnc5c4)c(Cl)c3)c2c1 [Final product of Embodiment 26] ; system CYP2C19 (Homo sapiens); inhibition at 20 min, 10 µM = 28

---

- MEASUREMENT TARGET: EGFR kinase (Homo sapiens)
- Sequence (P00533 25-1210): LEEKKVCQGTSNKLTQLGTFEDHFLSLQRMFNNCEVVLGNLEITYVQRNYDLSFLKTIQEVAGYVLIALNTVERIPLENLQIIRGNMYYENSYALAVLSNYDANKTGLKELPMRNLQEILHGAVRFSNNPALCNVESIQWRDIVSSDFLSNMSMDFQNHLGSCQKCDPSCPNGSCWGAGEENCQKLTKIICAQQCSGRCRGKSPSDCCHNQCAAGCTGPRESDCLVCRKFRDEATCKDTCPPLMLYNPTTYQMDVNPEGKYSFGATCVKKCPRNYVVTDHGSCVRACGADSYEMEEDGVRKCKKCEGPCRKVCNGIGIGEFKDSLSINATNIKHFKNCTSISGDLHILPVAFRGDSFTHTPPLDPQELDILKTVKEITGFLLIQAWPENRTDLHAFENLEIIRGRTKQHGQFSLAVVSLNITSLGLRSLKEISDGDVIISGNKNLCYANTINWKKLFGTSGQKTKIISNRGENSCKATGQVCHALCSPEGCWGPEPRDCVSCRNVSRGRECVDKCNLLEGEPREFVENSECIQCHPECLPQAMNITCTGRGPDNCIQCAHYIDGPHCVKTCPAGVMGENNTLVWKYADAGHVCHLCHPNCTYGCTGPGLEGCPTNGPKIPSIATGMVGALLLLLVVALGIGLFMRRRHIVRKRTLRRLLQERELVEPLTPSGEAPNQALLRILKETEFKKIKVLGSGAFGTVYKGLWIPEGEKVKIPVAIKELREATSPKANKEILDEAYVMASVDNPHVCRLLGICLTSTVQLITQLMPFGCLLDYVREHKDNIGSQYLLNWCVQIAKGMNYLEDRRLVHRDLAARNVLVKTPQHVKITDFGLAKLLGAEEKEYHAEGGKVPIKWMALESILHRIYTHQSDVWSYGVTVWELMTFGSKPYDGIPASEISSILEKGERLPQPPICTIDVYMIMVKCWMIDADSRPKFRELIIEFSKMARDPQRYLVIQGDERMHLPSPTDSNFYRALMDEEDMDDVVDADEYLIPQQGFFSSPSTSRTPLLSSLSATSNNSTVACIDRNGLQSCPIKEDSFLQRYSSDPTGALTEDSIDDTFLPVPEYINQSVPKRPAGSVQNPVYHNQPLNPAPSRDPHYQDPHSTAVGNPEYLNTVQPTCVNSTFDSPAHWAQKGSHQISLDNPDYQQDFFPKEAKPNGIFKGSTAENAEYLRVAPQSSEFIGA
- PROTOCOL TEXT: EGFR/ErbB2 enzymatic experiment (HTRF kinEASE-TK), EGFR
- Assay type: biochemical
- CONDITION NOTES: EGFR kinase 0.06 units/μL, ATP 1.65 μM; read-out: Kinase IC50 (nM) in vitro EGFR
Provide the reported IC50 of each item.

The compound C=CC(=O)N[C@@H]1CCCN(c2ccc3ncnc(Nc4ccc(Oc5cc6nncn6cn5)c(C)c4)c3c2)C1 showed IC50 equal to 24.3 nM

The compound CCOc1cc2ncnc(Nc3ccc(Oc4ccn5ncnc5c4)c(C)c3)c2cc1NC(=O)/C(F)=C\[C@@H]1CCCN1C showed IC50 equal to 50.9 nM

The compound CCOc1cc2ncnc(Nc3ccc(Oc4ccn5ncnc5c4)c(C)c3)c2cc1NC(=O)/C(F)=C/[C@@H]1CCCN1C showed IC50 equal to 38.5 nM

The compound Cc1cc(Nc2ncnc3ccc(NC(=O)/C=C/[C@H]4CCCN4C)cc23)ccc1Oc1cnc2ccnn2c1 showed IC50 equal to 0.757 nM

The compound CCOc1cc2ncnc(Nc3ccc(Oc4cc5nncn5cn4)c(C)c3)c2cc1NC(=O)/C=C/[C@H]1CCCN1C showed IC50 equal to 0.358 nM

The compound Cc1cc(Nc2c(C#N)cnc3ccc(NC(=O)/C=C/[C@H]4CCCN4C)cc23)ccc1Oc1cnc2c(cnn2C)c1 showed IC50 equal to 65.2 nM

The compound CCOc1cc2ncnc(Nc3ccc(Oc4ccn5ncnc5c4)c(C)c3)c2cc1NC(=O)/C=C/[C@H]1CCCN1C showed IC50 equal to 0.8 nM

The compound Cc1cc(Nc2ncnc3ccc(/C=C/C(=O)N(C)C)cc23)ccc1Oc1cc2nncn2cn1 showed IC50 equal to 156 nM

---

Provide the reported IC50 of each item.
- Test system: N87 (human gastric cancer cell NCI-N87)
- PROTOCOL TEXT: In vitro proliferation inhibition assay of cell lines (CellTiter-Glo), N87
- Assay type: cell-based
- CONDITION NOTES: N87 cells, 72 hours
Give the quantity in nM, number only.

The compound Cc1cc(Nc2ncnc3ccc(NC(=O)C=CC4COCCN4)cc23)ccc1Oc1cc2nncn2cn1 (stereo in doubt) showed IC50 equal to 33.4

The compound COCCOc1cc2ncnc(Nc3ccc(Oc4cc5nncn5cn4)c(C)c3)c2cc1NC(=O)/C=C/[C@H]1CCCN1C showed IC50 equal to 1.64

The compound Cc1cc(Nc2ncnc3ccc(NC(=O)/C=C/[C@H]4CCCN4C)cc23)ccc1Oc1cnc2ccnn2c1 showed IC50 equal to 1.6

The compound Cc1cc(Nc2ncnc3ccc(NC(=O)/C=C/[C@H]4CCCN4C)cc23)ccc1Oc1ccc2nc[nH]c2c1 showed IC50 equal to 22.6

The compound Cc1cc(Nc2ncnc3ccc(/C=C/C(=O)N(C)C)cc23)ccc1Oc1cc2nncn2cn1 showed IC50 equal to 301

The compound COCCOc1cc2ncnc(Nc3ccc(Oc4cc5nncn5cn4)c(C)c3)c2cc1NC(=O)/C=C/[C@H]1CCCN1 showed IC50 equal to 18.9

The compound Cc1cc(Nc2ncnc3ccc(NC(=O)/C=C/C4COCCN4)cc23)ccc1Oc1cc2nncn2cn1 (centres unmarked) showed IC50 equal to 77.5

The compound Cc1cc(Nc2c(C#N)cnc3ccc(NC(=O)/C=C/[C@H]4CCCN4C)cc23)ccc1Oc1cc2nncn2cn1 showed IC50 equal to 5.43

The compound C=CC(=O)N1CCCC(Nc2ccc3ncnc(Nc4ccc(Oc5cc6nncn6cn5)c(C)c4)c3c2)C1 (stereo in doubt) showed IC50 equal to 19.4

The compound CN1CCC[C@@H]1/C=C/C(=O)Nc1ccc2ncnc(Nc3ccc(Oc4ccn5ncnc5c4)c(Cl)c3)c2c1 showed IC50 equal to 3.55

The compound CCOc1cc2ncnc(Nc3ccc(Oc4ccn5ncnc5c4)c(C)c3)c2cc1NC(=O)/C(F)=C\[C@H]1CCCN1C showed IC50 equal to 1.2

The compound Cc1cc(Nc2ncnc3ccc(NC(=O)/C=C/[C@H]4CCCN4C)cc23)ccc1Oc1ccn2ccnc2c1 showed IC50 equal to 3.18

The compound CCOc1cc2ncc(C#N)c(Nc3ccc(OCc4ccccn4)c(Cl)c3)c2cc1NC(=O)/C=C/[C@H]1CCCN1C [drawing 239, reference compound] showed IC50 equal to 1.2

The compound Cc1cc(Nc2ncnc3ccc(NC(=O)/C=C/[C@H]4CCCN4C)cc23)ccc1Oc1cc2nccn2cn1 showed IC50 equal to 8.5

The compound CCOc1cc2ncnc(Nc3ccc(Oc4ccn5ncnc5c4)c(C)c3)c2cc1NC(=O)/C=C/[C@H]1CCCN1C showed IC50 equal to 0.68

The compound CCOc1cc2ncnc(Nc3ccc(Oc4ccn5ncnc5c4)c(C)c3)c2cc1NC(=O)/C=C/[C@H]1CCCN1 showed IC50 equal to 2.4

The compound C=CC(=O)Nc1ccc2ncc(C#N)c(Nc3ccc(Oc4cc5nncn5cn4)c(C)c3)c2c1 showed IC50 equal to 18.8

The compound CCOc1cc2ncnc(Nc3ccc(Oc4ccn5ncnc5c4)c(C)c3)c2cc1NC(=O)/C(F)=C\[C@@H]1CCCN1C showed IC50 equal to 3.1

The compound Cc1cc(Nc2ncnc3ccc(NC(=O)/C=C/[C@H]4CCCN4C)cc23)ccc1Oc1ccn2ncnc2n1 showed IC50 equal to 4.19

The compound CCOc1cc2ncnc(Nc3ccc(Oc4cc5nncn5cn4)c(C)c3)c2cc1NC(=O)/C=C/[C@H]1CCCN1 showed IC50 equal to 4.97

The compound Cc1cc(Nc2ncnc3ccc(NC(=O)/C=C/[C@H]4CCCN4C)cc23)ccc1Oc1ccn2ncnc2c1 showed IC50 equal to 2.07

The compound C=CC(=O)NC1CCC=C(c2ccc3ncnc(Nc4ccc(Oc5cc6nncn6cn5)c(C)c4)c3c2)C1 (centres unmarked) showed IC50 equal to 4.45

The compound CCOc1cc2ncnc(Nc3ccc(Oc4ccn5ncnc5c4)c(C)c3)c2cc1NC(=O)/C(F)=C/[C@H]1CCCN1C showed IC50 equal to 1.3
